Tested on: PC-3 prostate
test_details: NCI-60 one-dose screen, 48 h (100 = growth as untreated, 0 = no growth, -100 = all killed)
measurement_setup: 10 µM unless noted
The panel holds about 83,000 compounds, 20% with a hit somewhere; the sample as a whole holds those more often. Activity calls are given as the source filed them. The calls were made as follows: active = growth percent below 10; inactive = the rest.
Below is a list of entries, each paired with its recorded growth value.
reported_metric: growth

compound | observed_value
CC[C@@H]1[C@@H](C)O[C@@](O)([C@@H](C)[C@H](O)[C@H](C)[C@H]2OC(=O)/C=C/C=C/[C@H](C)[C@@H]([C@@H](C)[C@@H](O)[C@H](C)[C@@]3(O)C[C@@H](O[C@H]4C[C@@H](O)[C@H](O)C(C)O4)[C@H](CC)[C@@H](C)O3)OC(=O)/C=C/C=C/[C@@H]2C)C[C@H]1O[C@@H]1C[C@@H](O)[C@H](O)C(C)O1 (stereo partly specified) | -88.4% (active)
CC[C@H](C)[C@H](NC(=O)[C@H]1CCCCN1C)C(=O)N(C)[C@H](C[C@@H](OC(C)=O)c1nc(C(=O)NC23CC(C(=O)OC)(C2)C3)cs1)C(C)C | 23.6% (inactive)
O=C([O][Hg][c]1ccccc1)c1ccccc1 | 35.4% (inactive)
O=C1CNC(c2ccccc2)c2cc(Cl)ccc2N1 (stereo unspecified) | 99.3% (inactive)
CO[C@H](C(=O)O)[C@@H]1Cc2cc3cc(OC4CC(OC5CC(O)C(O)C(C)O5)C(O)C(C)O4)c(C)c(O)c3c(O)c2C(=O)[C@H]1OC1CC(OC2CC(OC3CC(C)(O)C(O)C(C)O3)C(O)C(C)O2)C(O)C(C)O1 (stereo partly specified) | 19.7% (inactive)
COc1cc(/C=N/C2=C(C#N)C(c3ccco3)c3c(c4cc(C)ccc4oc3=O)O2)cc(OC)c1OC (stereo unspecified) | 89.9% (inactive)

###

System: SN12C renal
test_details: NCI-60 one-dose screen, 48 h (100 = growth as untreated, 0 = no growth, -100 = all killed)
measurement_setup: 10 µM unless noted
About 83,000 compounds went through this panel and 20% of them were active in at least one assay; those are over-represented in the sample as a whole. Active and inactive are the calls of the source. The calls were made as follows: active = growth percent below 10; inactive = the rest.
Examples of molecules with documented growth follow.
reported_metric: growth

molecule | observed_value
CCn1c2ccccc2c2cc(C(=O)c3ccc(C)c4ccccc34)ccc21 | 22.7% (inactive)
CC[C@H](C)[C@H](NC(=O)c1ccccn1)C(=O)N(C)[C@H](C[C@@H](OC(C)=O)c1nc(C(=O)N[C@@H](Cc2ccccc2)C[C@H](C)C(=O)OC)cs1)C(C)C | 46.9% (inactive)
CCn1cnc2c(Nc3cccc(Cl)c3)nc(N[C@@H]3CCCC[C@@H]3N)nc21 | 6.96% (active)
COc1cc([N+](=O)[O-])c2nc(C)ccc2c1[N+](=O)[O-] | 89% (inactive)
CC[C@]12C=CCN3CC[C@@]4(c5ccc(OC)cc5N(C)[C@H]4[C@@](O)(C(=O)OC)[C@@H]1OC(=O)CCCC[P+](c1ccccc1)(c1ccccc1)c1ccccc1)[C@@H]32 | 4.56% (active)
CC1=C(CCCNS(C)(=O)=O)C2=C(C)C3(CC3)[C@@](C)(O)C(=O)C2=C1 | 8.84% (active)
CCOC(=O)c1c(C)n(Cc2ccccc2)c2cc(CN(C)C)c(O)cc12 | 57.8% (inactive)
N/C(=N\N=C\c1ccc(-c2ccccc2)cc1)N[N+](=O)[O-] | 53.3% (inactive)
CCN(CCO)C(Cc1ccccc1)c1ccccc1 (stereo not drawn) | 102% (inactive)
O=[N+]([O-])/C=C\c1ccc(Cl)c(Cl)c1 | 77.5% (inactive)
O=[N+]([O-])c1cc([N+](=O)[O-])c(Cl)cc1Cl | -89% (active)
COC(=O)[C@@H](C)C[C@H](Cc1ccccc1)NC(=O)c1nc([C@@H](C[C@H](C(C)C)N(C)C(=O)[C@@H](NC(=O)[C@H]2CC(=O)CCN2C)C(C)C)OC(C)=O)sc1C(C)C | 17.5% (inactive)
c1cnc2[nH]cc(-c3csc(-c4cn(CCCCN5CCCCC5)c5ccccc45)n3)c2c1 | 75.2% (inactive)
CCN(CC)c1ccc2c(c1)OC(N)=C(C#N)C2c1cc(OC)c2c(c1)OCO2 (stereo not drawn) | 15.1% (inactive)
[Cl][Hg][c]1cc(Br)cc(Br)c1 | 24% (inactive)
O=C1NC(=O)C(=Cc2ccc(OCCCCC3CCCCC3)c(Cl)c2)C(=O)N1 | 77.3% (inactive)
COc1ccc(C2=CC(c3ccc(OC)c(OC)c3)c3c(c4ccccc4oc3=O)O2)cc1OC (stereo not drawn) | 58.7% (inactive)
C[C@]12CCc3sc(-c4cccc(F)c4)nc3C1=CC[C@@H]1[C@@H]2CC[C@]2(C)C(=O)CC[C@@H]12 | 42.9% (inactive)
CCC[CH2][Sn]([CH2]CCC)([CH2]CCC)[O]c1ccc(Cl)cc1Cl | -69% (active)
CCCCCCCC[n+]1ccc2ccccc2c1 | 48.3% (inactive)
CC(C)(N)Cc1ccccc1 | 108% (inactive)
Nc1ccc(Cl)cc1 | 95.3% (inactive)
CCOP(=O)(Nc1ccc2c(c1)/C(=N/NC(N)=S)c1ccccc1-2)OCC | 81.9% (inactive)
Cn1cc(-c2csc(-c3cn(CCCCN4CCCCC4)c4ccc(F)cc34)n2)c2cccnc21 | 75.7% (inactive)
COc1cc(C=Nc2cc(Cl)cc(Cl)c2)ccc1N(CCCl)CCCl | 87.6% (inactive)
Brc1ccc2c(c1)c(-c1nc(-c3c[nH]c4ncccc34)cs1)cn2CCN1CCOCC1 | 71.5% (inactive)
CCCCCCCCCCCCNC(c1ccccc1)C(O)c1ccccc1 (stereo not drawn) | 68.5% (inactive)
O=P(N1CC1)(N1CC1)N1CCc2ccccc21 | 92.4% (inactive)
ClCCN(CCCl)Cc1ccc(Nc2ccnc3cc(Cl)ccc23)cc1 | 18.8% (inactive)
Clc1cccc(N2COOC3(OOC2)C2CC4CC(C2)CC3C4)c1 | 76% (inactive)
COc1cccc2c1c(C(=O)C(=O)Nc1cc(C)no1)cn2Cc1ccc(F)cc1 | 62.2% (inactive)
CCC1(C)CC(CCNCc2ccccc2O)(c2ccc(C)cc2)CCO1 (stereo not drawn) | 105% (inactive)
c1ccc(COc2ccc3[nH]cc(CCN(Cc4ccccc4)Cc4ccccc4)c3c2)cc1 | 86.3% (inactive)
CCCOC(=O)N[C@H]1CCc2c(Br)c(OC)c(OC)c(OC)c2-c2ccc(SC)c(=O)cc21 | 14.1% (inactive)
CC12CC=CCC1CCC1C2CCC2(C)C(c3ccc(=O)oc3)CCC12O (stereo not drawn) | -13.1% (active)
CCCC(=O)O[C@@H]1C[C@H]2C[C@@H](O[C@@H]3O[C@@H](C)[C@@H](O)[C@@H](O)[C@H]3OC)C[C@@H](C[C@@H](C)/C=C/C=C\C[C@@H]3O[C@@H](C[C@@H]3C)[C@@H](O)C[C@H]3C[C@@]1(O)C(=O)O3)O2 | 58.7% (inactive)
C1CCC([PH+](C2CCCCC2)C2CCCCC2[PH+](C2CCCCC2)C2CCCCC2)CC1.[Au].[CH-]1CCCCC1CC1CCCC[N-]1 (stereo not drawn) | -32% (active)
COc1cccc(/C=C/[N+](=O)[O-])c1 | 99.5% (inactive)
